Cited source for all entries: paper PMC7819943

target: OsWRKY34 (Oryza sativa, UniProt Q0JBA9 1-250); test: protein-binding microarray (RPBM); PBS, 2% BSA, 51.3 ng/ul salmon testes DNA, 50 uM zinc acetate, 200 nM TF, 25 C, 1 h; high values mean tight binding; conditions: protein: recombinant; tags: N-terminal polyhistidine and DsRed monomer fusion (pET32a); label: CyDye5-dUTP incorporated in the synthesized complementary strand; 3' TTTTT single-stranded linker to array surface; dsDNA, one strand shown
Sequence (Q0JBA9 entry or part of it): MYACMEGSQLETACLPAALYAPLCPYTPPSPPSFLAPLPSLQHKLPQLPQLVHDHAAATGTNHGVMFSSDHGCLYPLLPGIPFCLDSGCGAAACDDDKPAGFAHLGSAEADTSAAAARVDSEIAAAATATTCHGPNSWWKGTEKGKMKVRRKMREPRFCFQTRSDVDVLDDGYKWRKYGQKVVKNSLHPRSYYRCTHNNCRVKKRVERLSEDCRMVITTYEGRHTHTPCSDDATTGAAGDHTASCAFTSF
Whole data set: some 68,000 sequences, median “fluorescence intensity (a.u.)” near 9,100, cut for the highest 2% near 16,000. The sample as a whole holds a higher share of the highest values than the screen did.
Measurement Name: binding signal

[[record]]
residues = "ATTTTTTATGGGTGTTTGGTTAGTGGGTGGGAGTGGGATACGGAGTCACCTAGTGCAG"
observed_result = "12000 fluorescence intensity (a.u.)"

[[record]]
residues = "TTTTAAACATGTTTGACCGTTCGTCTTATTCAAAAAATTTCGGAGTCACCTAGTGCAG"
observed_result = "8310 fluorescence intensity (a.u.)"

[[record]]
residues = "CATCTTTGTGGTTGTGTGGGTGTGTGTGTATATATATACCCGGAGTCACCTAGTGCAG"
observed_result = "8180 fluorescence intensity (a.u.)"

[[record]]
residues = "ACCGTTGATTTTTTTAAACATGTTTGACCGTTCGTCTTATCGGAGTCACCTAGTGCAG"
observed_result = "17100 fluorescence intensity (a.u.)"

[[record]]
residues = "GCATATGGGGATTCTGGGATTTTGGTTTACAGTCTACATTCGGAGTCACCTAGTGCAG"
observed_result = "8100 fluorescence intensity (a.u.)"

[[record]]
residues = "AAAGTGATGTGGTGGTGGAGTTGTGGGTATATGATTTTATCGGAGTCACCTAGTGCAG"
observed_result = "8790 fluorescence intensity (a.u.)"

[[record]]
residues = "GGATGGGTTATATCTAGTATTGTGGTTGGGACTGCCTATACGGAGTCACCTAGTGCAG"
observed_result = "11100 fluorescence intensity (a.u.)"

[[record]]
residues = "TATTTGATGCCGTTGACTTTTTTAAATATGTTTGACCGTTCGGAGTCACCTAGTGCAG"
observed_result = "20900 fluorescence intensity (a.u.)"

[[record]]
residues = "GAGGTCCCGTCGCTCCGGCGAGCTCCCGCCATCCGCCTCGCGGAGTCACCTAGTGCAG"
observed_result = "8630 fluorescence intensity (a.u.)"

[[record]]
residues = "CGAGACCGACTGATGCTACAACTTCTGTCCTTGCTCCGGCCGGAGTCACCTAGTGCAG"
observed_result = "8620 fluorescence intensity (a.u.)"

[[record]]
residues = "GCTACTATCAAGTCATAAGCTTACTACCAAGTTATAGCACCGGAGTCACCTAGTGCAG"
observed_result = "8320 fluorescence intensity (a.u.)"

[[record]]
residues = "TATTTGACGCCGTTGATTTTTTTAAATATGTTTGACCGTTCGGAGTCACCTAGTGCAG"
observed_result = "11000 fluorescence intensity (a.u.)"

[[record]]
residues = "GGGTTGATGTGTGGTGAAGGGTAGGTAATTTGTAGGAGTACGGAGTCACCTAGTGCAG"
observed_result = "10800 fluorescence intensity (a.u.)"

[[record]]
residues = "TTGTTTGACTCTTTTTTAATTAAATTTCTATAAGTTTAATCGGAGTCACCTAGTGCAG"
observed_result = "8280 fluorescence intensity (a.u.)"

[[record]]
residues = "ACTTTTTTAAATATGTTTGACCGTTCGTTTTATTCAAAAACGGAGTCACCTAGTGCAG"
observed_result = "8320 fluorescence intensity (a.u.)"

[[record]]
residues = "CGTTGACTTTTTTAAATATATTTAGCAGTTCGTCTTATTACGGAGTCACCTAGTGCAG"
observed_result = "16500 fluorescence intensity (a.u.)"

[[record]]
residues = "TTACCTTAGATTTGGTAGGGCTGGTTAGGGCTGGTTGGAGCGGAGTCACCTAGTGCAG"
observed_result = "8680 fluorescence intensity (a.u.)"

[[record]]
residues = "GGGTTTTGCTTTTGCTGTTGTCTTGGGCTTGGGCCTTTGCCGGAGTCACCTAGTGCAG"
observed_result = "8660 fluorescence intensity (a.u.)"

[[record]]
residues = "CTATCGATATAATCTCTAAGTGAGTTTTTTGTATTTTTTTCGGAGTCACCTAGTGCAG"
observed_result = "8020 fluorescence intensity (a.u.)"

